Where do the numbers come from? From patent US20240067748A1.

Target: T1, human Trop2 on cells (human, UniProt P09758 27-323)
T1 construct: whole, on cells; also called hTrop2; 293T-human Trop2 cells
T1 sequence (looked up): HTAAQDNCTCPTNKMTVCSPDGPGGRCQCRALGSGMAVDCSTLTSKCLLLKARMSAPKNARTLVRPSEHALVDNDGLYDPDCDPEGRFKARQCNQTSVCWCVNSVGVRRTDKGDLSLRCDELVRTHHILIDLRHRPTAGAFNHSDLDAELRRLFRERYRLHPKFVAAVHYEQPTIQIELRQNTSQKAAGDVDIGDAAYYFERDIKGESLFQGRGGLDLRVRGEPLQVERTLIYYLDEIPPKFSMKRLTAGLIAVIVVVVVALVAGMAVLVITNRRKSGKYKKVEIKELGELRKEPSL
Assay: flow cytometry on 293T-human Trop2 cells
List of Top % values.
Respond with the bare value in %.

# binder, unit of measurement, Top %
measured = [
    ("PR001154 (antibody, human IgG1, kappa, V domains shown, fully human IgG1/kappa; also called antibody No. (17)) VH: QVQLVESGGGVVQPGRSLRLSCEASGFTFSHYGMHWVRQAPGKGLEWVAVIWYDGIKKYYIESVKGRFIISRDNSKNTLYLQMNRLRAEDTAVYYCARDGGFGELNYYGLDVWGQGTTVTVSS VL: DIQLTQSPSFLSASVGDRVTITCRASQGISSYLGWYQQKPGKAPKLLIYVASTLQSGVPSRFSGSGSGTEFTLTISSLQPEDFATYYCQQLNSYPYTFGQGTKLEIKR", "%", 115),
]

Next:
Supply Top % value. Item: PR001138 (antibody, human IgG1, kappa, V domains shown, fully human IgG1/kappa; also called antibody No. (7)) VH: QVQLQESGPRLVKPSETLSLTCAVSGYSISSGYYWGWIRQSPGMGLEWIAYIYHDGSTYCNPSLKSRVTMSVDTSKNQFSLKLRSVTAADTAVYYCARDGAAAPFDYWGQGTLVTVSS VL: DIQMTQSPSTLSASVGDRVTITCRASQSISNWLAWYQQKPGKAPKVLIYKASSLESGVPSRFSGSGSGTEFTLTINSLQPDDFATYYCQQYDSYSITFGQGTRLEIKR
104
